As shown below, each of these compounds has a reported T/C value.
Tested on: BDF1 mice, P388 leukemia ip, median survival T/C
test_summary: NCI In Vivo Anticancer Drug Screen. Data for tumor model P388 Leukemia (intraperitoneal) in B6D2F1 (BDF1) mice
test_conditions: endpoint: median survival time; dose: 100.0 mg/kg/injection; schedule: Q01DX001 (ip); vehicle: saline; higher = longer survival
Inconclusive results and toxic doses are left out.
measured_attribute: T/C

> print(dat)
                                   compound        data.value
1  CN1C(=O)NC2C(CO)OC1C2O (stereo unspecified)  104 % of control
2                     Cc1nc(N)ncc1CCC1OCCO1  100 % of control
3                  CCC(=O)OCc1c(C)nc2sccn12  105 % of control
4                                  CCCB(O)O  100 % of control
5  Cc1ccc(S(=O)(=O)N/N=C/C(O)C(O)C(O)CO)cc1 (stereo unspecified)  110 % of control
6  COC1OC(n2cnc3ncn(Cc4ccccc4)c3c2=N)C2OC(C)(C)OC12 (stereo unspecified)  110 % of control

###

Test system: BDF1 mice, P388 leukemia ip, median survival T/C
test_summary: NCI In Vivo Anticancer Drug Screen. Data for tumor model P388 Leukemia (intraperitoneal) in B6D2F1 (BDF1) mice
test_conditions: endpoint: median survival time; dose: 200.0 mg/kg/injection; schedule: Q01DX005 (ip); vehicle: saline with Tween-80; higher = longer survival
Inconclusive results and toxic doses are left out.
Form field: T/C (one value per entry).
measured_attribute: T/C

> print(dat)
                                    compound        data.value
 1  CCNC(=O)OCc1cnc(C)c(OC(=O)NCC)c1COC(=O)NCC  101 % of control
 2        COc1c2c(cc3oc4ccccc4c(=O)c13)CCCC2   87 % of control
 3       O=C1C(Cl)=C(Nc2nccs2)C(=O)c2ccccc21  118 % of control
 4  CC(=O)NC(CCCCNC(=O)OCc1ccccc1)C(=O)O (stereo unspecified)   89 % of control
 5                              COC(=O)CCCCI  107 % of control
 6  COc1ccc(C2C(C#N)=C(N)NC(=O)C2C(N)=O)cc1 (stereo unspecified)   92 % of control
 7  O=C1c2ccccc2C(=O)c2c(NCCOCCO)ccc(NCCOCCO)c21  102 % of control
 8  CC(C)(C)OC(=O)NCC(=O)NC(Cc1c[nH]c2ccccc12)C(=O)O (stereo unspecified)   95 % of control
 9                        Cn1ncc(=O)c(Cl)c1S   99 % of control
10           O=C(Oc1ccccc1)c1cc(O)c(O)c(O)c1  105 % of control
11  NC(=O)c1c(Cl)nc(-c2cccc([N+](=O)[O-])c2)c([N+](=O)[O-])c1C(F)(F)F  112 % of control

###

System: BDF1 mice, P388 leukemia ip, median survival T/C
test_summary: NCI In Vivo Anticancer Drug Screen. Data for tumor model P388 Leukemia (intraperitoneal) in B6D2F1 (BDF1) mice
test_conditions: endpoint: median survival time; dose: 6.25 mg/kg/injection; schedule: Q04DX003 (ip); vehicle: Klucel (hydroxypropylcellulose) (HPC); higher = longer survival
Inconclusive results and toxic doses are left out.
Documented T/C across a set of compounds
measured_attribute: T/C

> print(dat)
                                   compound        data.value
1  CC(CC(=O)O)C(C(=O)O)C(=O)O (stereo not given)   94 % of control
2            N#Cc1nc2c(nc1C#N)-c1ccccc1C2=O  100 % of control
3   Nc1cc(NC(=O)c2ccc(Cl)cc2)ccc1S(=O)(=O)O   95 % of control
4  CC(=O)O[C@H]1CC[C@H]2[C@@H]3CC[C@H]4C[C@@H]5[C@H](C[C@]4(C)[C@H]3CC[C@]12C)C5(F)F  100 % of control
5  COC(=O)C(CSCc1ccccc1)NC(=O)CCNC(=O)OCc1ccccc1 (stereo not given)  113 % of control

###

Listed below: T/C values for each entry.
Test system: BDF1 mice, P388 leukemia ip, median survival T/C
test_summary: NCI In Vivo Anticancer Drug Screen. Data for tumor model P388 Leukemia (intraperitoneal) in B6D2F1 (BDF1) mice
test_conditions: endpoint: median survival time; dose: 50.0 mg/kg/injection; schedule: Q04DX003 (ip); vehicle: saline; higher = longer survival
Inconclusive results and toxic doses are left out.
measured_attribute: T/C

> print(dat)
                                    compound                               measured.on        data.value
 1                     CN1CCC(=C(C#N)C#N)CC1  BDF1 mice, P388 leukemia ip, median survival T/C  100 % of control
 2  C#CCOCC1CN(C)C(=O)O1 (centres undefined)  BDF1 mice, P388 leukemia ip, median survival T/C   91 % of control
 3  COc1cc2cc3c4cc(OC)c(OC)cc4cc[n+]3c(C)c2cc1OC (tested in a mixture with another compound)  BDF1 mice, P388 leukemia ip, median survival T/C  157 % of control
 4            O=C(O)c1nc2nc(Cl)c(Cl)nc2[nH]1  BDF1 mice, P388 leukemia ip, median survival T/C  111 % of control
 5                    Cc1nc(NN)c(C(N)=O)nc1C  BDF1 mice, P388 leukemia ip, median survival T/C  102 % of control
 6                         NCCc1cnc2ccccc2n1  BDF1 mice, P388 leukemia ip, median survival T/C  100 % of control
 7           CCOc1ccn(CC(=O)Nc2nccs2)c(=O)n1  BDF1 mice, P388 leukemia ip, median survival T/C  114 % of control
 8         CCOC(=O)c1cnc2c(cnn2CC)c1NN=C(C)C  BDF1 mice, P388 leukemia ip, median survival T/C  122 % of control
 9    N#Cc1ccccc1NN=Nc1ccccc1-c1nc(N)nc(N)n1  BDF1 mice, P388 leukemia ip, median survival T/C  116 % of control
10                           NNC(=O)c1ccncc1  BDF1 mice, P388 leukemia ip, median survival T/C  105 % of control
11                              CCS/C(N)=N\N  BDF1 mice, P388 leukemia ip, median survival T/C  104 % of control
12  O=C(CCl)NC(CO)C(=O)O (centres undefined)  BDF1 mice, P388 leukemia ip, median survival T/C   91 % of control
13  CC(=O)Oc1ccc(OC(C)=O)c2c1CC1(C)OC1(C)C2 (centres undefined)  BDF1 mice, P388 leukemia ip, median survival T/C  107 % of control
14                                O=CC(Cl)Cl  BDF1 mice, P388 leukemia ip, median survival T/C   95 % of control

###

Test system: BDF1 mice, P388 leukemia ip, median survival T/C
test_summary: NCI In Vivo Anticancer Drug Screen. Data for tumor model P388 Leukemia (intraperitoneal) in B6D2F1 (BDF1) mice
test_conditions: endpoint: median survival time; dose: 50.0 mg/kg/injection; schedule: Q04DX003 (ip); vehicle: Klucel (hydroxypropylcellulose) (HPC); higher = longer survival
Inconclusive results and toxic doses are left out. Residues, ends and D or L forms follow the SMILES beside them. *: point of attachment. Cbz = O=C(OCc1ccccc1)*; Bn = c1ccc(C*)cc1; βAla = NCCC(=O)O
measured_attribute: T/C

molecule	data_value
COC(=O)C(CSCc1ccccc1)NC(=O)C(CSCc1ccccc1)NC(=O)CCNC(=O)OCc1ccccc1 (stereo not drawn) ({Cbz-βAla}-Cys(Bn)-Cys(Bn)-OMe; configuration not given here)	100 % of control
CN1OCC2CCCC(c3ccccc3)C21 (stereo not drawn)	100 % of control
N#CC(=C1C=CC(=NO)C=C1)c1ccc(Cl)cc1	98 % of control
Cc1noc(C)c1CC1(Cc2c(C)noc2C)C(=O)CCC2(C)CCCC=C21 (stereo not drawn)	91 % of control
CC(CC(=O)O)C(C(=O)O)C(=O)O (stereo not drawn)	90 % of control
CC1=C/C(=N/NC(N)=O)CC(C)C1 (stereo not drawn)	100 % of control
N#Cc1ccccc1NN=Nc1ccccc1-c1nc(N)nc(N)n1	104 % of control
O=C(Nc1ccc2ncccc2c1)Nc1ccc2ncccc2c1	91 % of control
O=C1c2ccccc2CCC12OC2c1ccccc1[N+](=O)[O-] (stereo not drawn)	110 % of control
CCCCCCCCCCCCNC(=O)CC(O)(CC(=O)O)C(=O)O (stereo not drawn)	88 % of control
CC(=O)Oc1cccc2c1C(=O)c1c(OC(C)=O)cccc1C2=O	108 % of control
CCCCN(C)N=Nc1ccccc1C(N)=O	100 % of control
Cc1c(C(=O)CCl)c(=O)n(-c2ccccc2)n1C	100 % of control
Oc1ccccc1C=NCCN1CC1.Oc1ccccc1C=NCCN1CC1.[Ni+2]	122 % of control
CCOC(=O)NC(=S)n1ncnc1N	100 % of control
Nc1ccccc1SC1CC(=O)N(c2ccc(I)cc2)C1=O (stereo not drawn)	100 % of control
C/C(=C\c1ccccc1)[N+](=O)[O-]	113 % of control
Nc1c(Br)cc2c(c1Br)Cc1cc(Cl)ccc1-2	90 % of control
